The reported measurements were obtained from ChEMBL document CHEMBL5375953.

Assay: Metabolic Stability in cynomolgus monkey liver microsome assessed as microsomal intrinsic clearance at […] measured upto 60 mins by HPLC-MS/MS analysis
Type: ADME, Macaca fascicularis
Settings: liver microsomes, read-out: CLH
MEASURED METRIC: microsomal CLint (µL/min/mg)
Report the figure in µL/min/mg without appending any unit label.

Form field: reported microsomal CLint of CCS(=O)(=O)c1ccc(CC(=O)Nc2cc(Cl)c(-c3ccc(OC(C)C)c(C#N)c3)c(Cl)c2)cc1
44.6

###

Assay: Clearance in rat at 1 mg/kg,iv administration measured after 24 hrs by LC-MS/MS analysis
Assay type: ADME, organism-based
Conditions: in vivo
MEASURED METRIC: clearance
Please provide the amount together with its unit, number first.

Form field: reported clearance of CCS(=O)(=O)c1ccc(CC(=O)Nc2cc(Cl)c(-c3ccc(OC(C)C)c(C#N)c3)c(Cl)c2)cc1
3.2 mL/min/kg

###

Assay: Cmax in rat at 5 mg/kg,po administration measured after 24 hrs by LC-MS/MS analysis
Format: ADME, organism-based
Parameters: time 24 hrs, dose 5 mg/kg, route po
Conditions: in vivo
MEASURED METRIC: Cmax (ng/mL)
Report the figure in ng/mL without appending any unit label.

Form field: reported Cmax of CCS(=O)(=O)c1ccc(CC(=O)Nc2cc(Cl)c(-c3ccc(OC(C)C)c(C#N)c3)c(Cl)c2)cc1
503

###

Test: Half life in dog at 2 mg/kg,po administration measured after 24 hrs by LC-MS/MS analysis
Type: ADME, organism-based, Canis lupus familiaris
Conditions: in vivo
MEASURED METRIC: half-life (h)
Report the figure in h without appending any unit label.

Form field: reported half-life of CCS(=O)(=O)c1ccc(CC(=O)Nc2cc(Cl)c(-c3ccc(OC(C)C)c(C#N)c3)c(Cl)c2)cc1
59.1

###

Assay: Cmax in CD-1 mouse at 5 mg/kg,po administration measured after 24 hrs by LC-MS/MS analysis
Type: ADME, organism-based
Design: dose 5 mg/kg, time 24 hrs, route po
Details: in vivo
MEASURED METRIC: Cmax
Please provide the amount together with its unit, number first.

Form field: reported Cmax of CCS(=O)(=O)c1ccc(CC(=O)Nc2cc(Cl)c(-c3ccc(OC(C)C)c(C#N)c3)c(Cl)c2)cc1
1810 ng/mL

###

Experiment: Half life in rat at 5 mg/kg,po administration measured after 24 hrs by LC-MS/MS analysis
Assay type: ADME, organism-based
Conditions: in vivo
MEASURED METRIC: half-life
Please provide the amount together with its unit, number first.

Form field: reported half-life of CCS(=O)(=O)c1ccc(CC(=O)Nc2cc(Cl)c(-c3ccc(OC(C)C)c(C#N)c3)c(Cl)c2)cc1
11.4 h

###

Biological target: Nuclear receptor ROR-beta (Homo sapiens, UniProt Q92753)
Sequence (Q92753 whole entry): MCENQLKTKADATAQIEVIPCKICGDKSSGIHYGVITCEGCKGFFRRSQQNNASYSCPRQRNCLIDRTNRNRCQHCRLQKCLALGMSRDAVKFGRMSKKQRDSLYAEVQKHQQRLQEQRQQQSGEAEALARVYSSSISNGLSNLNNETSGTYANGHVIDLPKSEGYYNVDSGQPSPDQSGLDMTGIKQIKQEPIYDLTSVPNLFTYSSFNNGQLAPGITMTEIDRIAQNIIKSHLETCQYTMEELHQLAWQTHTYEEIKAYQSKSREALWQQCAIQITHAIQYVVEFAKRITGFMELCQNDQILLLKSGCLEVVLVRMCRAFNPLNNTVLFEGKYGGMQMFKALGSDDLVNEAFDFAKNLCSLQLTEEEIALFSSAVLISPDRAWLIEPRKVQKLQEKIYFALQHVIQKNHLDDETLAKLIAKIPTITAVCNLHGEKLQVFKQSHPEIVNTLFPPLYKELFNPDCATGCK
Test: Agonist activity at human Gal4-fused RORbeta expressed in HEK293T cells assessed as luciferase activity incubated for 16 to 20 hrs by Luciferase reporter gene assay
MEASURED METRIC: EC50 (µM)
Report the figure in µM without appending any unit label.

Form field: reported EC50 of CC(C)(C[C@H]1CN(S(=O)(=O)c2cccc(C(F)(F)F)c2)c2cc(-c3cc(F)cc(OC(F)F)c3)ccc2O1)C(=O)O
5.43
